testedSystem: UniProtKB P25105
Sequence (P25105 whole entry): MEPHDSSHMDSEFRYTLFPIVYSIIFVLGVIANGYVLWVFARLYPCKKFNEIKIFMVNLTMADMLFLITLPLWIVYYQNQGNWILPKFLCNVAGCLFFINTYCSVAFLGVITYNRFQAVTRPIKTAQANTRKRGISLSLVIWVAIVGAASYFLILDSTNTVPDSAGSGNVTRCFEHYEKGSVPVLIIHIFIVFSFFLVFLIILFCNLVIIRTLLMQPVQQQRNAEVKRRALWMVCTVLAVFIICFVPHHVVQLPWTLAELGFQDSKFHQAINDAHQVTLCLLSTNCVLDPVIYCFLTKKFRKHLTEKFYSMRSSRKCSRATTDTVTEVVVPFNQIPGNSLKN
metricName: pIC50
# pIC50 is unitless: minus log10 of the molar concentration; print number only

compound	testedSystem	endpointValue
CC(C)n1c(-c2ccc(OC(F)(F)F)cc2)nc2cc(C(=O)N3CCC(O)(c4cccnc4)C3)ccc21 (centres unmarked)	UniProtKB P25105	8.05

# context switch: different compound, same pIC50
If you can, please state the reported pIC50 value of CC(C)n1c(-c2ccc(OC(F)(F)F)cc2)nc2cc(C(=O)N3CCC(c4cccnc4)C3)ccc21 (single isomer, unassigned) .
8.70
